Task for the reader: assign each of the following molecules its reported Minimal Inhibitory Concentration, A. baumannii ATCC 19606.
System: Acinetobacter baumannii ATCC 19606
Type: cell-based
Details: ATCC 19606, pH 7.4
Non-standard residues stand in square brackets, D forms with d. Residues, ends and D or L forms follow the SMILES beside them. *: point of attachment. Palmitoyl = CCCCCCCCCCCCCCCC(=O)*

Qu. // Minimal Inhibitory Concentration, A. baumannii ATCC 19606 lookup, key: NCCCC[C@@H](N)C(=O)NCC(=O)NCC(=O)NCC(=O)N[C@H](CCCCN)C(=O)NCC(=O)NCC(=O)NCC(=O)N[C@H](CCCCN)C(=O)NCC(=O)NCC(=O)N[C@H](CCCCN)C(N)=O [DK4G8, reference compound] (H-[dK]GGG[dK]GGG[dK]GG[dK]-NH2; N-terminus assumed)
Ans. >100 µM

Qu. Now give it for CCCCCCCCCCCCCCCC(=O)N[C@@H](CCC(=O)O)C(=O)N[C@H](CCCCN)C(=O)N[C@@H](CCCCN)C(N)=O [PA-EKK, Palmitoyl-Glu-D-Lys-Lys-NH2] (Palmitoyl-Glu-[dK]-Lys-NH2) too.
Ans. >100 µM

Qu. Now give it for CCCCCCCCCCCCCCCC(=O)N[C@@H](CCCCN)C(N)=O [PA-K] too.
Ans. >100 µM
